biological target: T1, HLA-A*0201 on T2 cells (human); test: T2 cell binding assay, flow cytometry
T1 construct: whole, on cells; also called HLA-A2
Square brackets hold non-standard residues; d marks the D form. Ends that are not written are not given here. Nle = CCCC[C@H](N)C(=O)O; Nva = CCC[C@H](N)C(=O)O
READOUT: Relative affinity (1/RA)

For this binder ( FVS[Nva]KIFYV (also called FVS(Nva)KIFYV) [SSX2 41-49 (K41F, A42V, E44Nva)] ), measured Relative affinity (1/RA) is 3.9

A. FVSEKIFFV [SSX2 41-49 (K41F, A42V, Y48F)]
B. FVSEKIFSV [SSX2 41-49 (K41F, A42V, Y48S)]
C. FVS[Nle]KIFYV (also called FVS(Nle)KIFYV) [SSX2 41-49 (K41F, A42V, E44Nle)]
Lookup: Order the entries by their reported Relative affinity (1/RA), beginning at the minimum. List labels; respect the requested ordering.
Found: C, A, B

1. FVSEKLFSA [SSX2 41-49 (K41F, A42V, I46L, Y48S, V49A)]
2. FVSEKIFXV (4-fluorophenylalanine (Phe(4-F)) at position 48 (P8), also called FVSEKIF(Phe-4F)V) [SSX2 41-49 (K41F, A42V, Y48(Phe-4F))]
Lookup: Smaller Relative affinity (1/RA) value, 1 vs 2 ? Write down the label attached to your selection.
Found: 2
(2: 1.4, 1: 2.4)
